# targetOfAssay: human JAK1 (a.a. 837-1142) (Homo sapiens)
# Construct: The catalytic domains of human JAK1 (a.a. 837-1142); His tag (N); made in house; host or cells: insect cells (baculovirus)
# Sequence (P23458 849-1154): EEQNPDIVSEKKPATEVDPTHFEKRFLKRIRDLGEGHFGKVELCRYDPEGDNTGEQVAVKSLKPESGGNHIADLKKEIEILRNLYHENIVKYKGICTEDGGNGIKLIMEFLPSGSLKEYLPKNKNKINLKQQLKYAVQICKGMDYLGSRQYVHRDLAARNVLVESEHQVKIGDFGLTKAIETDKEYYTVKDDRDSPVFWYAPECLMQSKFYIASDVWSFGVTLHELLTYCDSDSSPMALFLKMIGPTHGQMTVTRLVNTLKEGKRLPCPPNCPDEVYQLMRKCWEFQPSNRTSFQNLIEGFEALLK
# protocolDetails: In vitro JAK kinase assay (HTRF, phosphorylation of biotinylated peptide), JAK1
# Assay type: biochemical
# recordedConditions: 1 mM ATP; Examples 92-162; read-out: JAK1 IC50 (nM) @ 1 mM ATP
endpointName: IC50

Examples with their reported IC50 follow.
// lookup IC50 for CCC(CN1CCN(S(=O)(=O)c2ccccc2)CC1)n1cc(-c2ncnc3[nH]ccc23)cn1 (stereo not drawn) < 20 nM

For the compound Cc1c(Nc2cccc(F)c2F)ncnc1N1CCC(C(CC#N)n2cc(-c3ncnc4[nH]ccc34)cn2)CC1 (stereo not drawn) , what IC50 is on record? 20 to 50 nM

What IC50 value was documented for this compound, COCC1CN(C(=O)c2ccc(C#N)cc2F)CCN1CC(CC#N)n1cc(-c2ncnc3[nH]ccc23)cn1 (single isomer, unassigned) [Example 157—peak 3] ? > 100 nM

Item under review: COc1cc(Cl)ccc1C(=O)N1CCCN(CC(CC#N)n2cc(-c3ncnc4[nH]ccc34)cn2)CC1 (stereo not drawn) . Reported IC50? < 20 nM

Quick one: IC50 for CCC(CN1CCN(S(=O)(=O)c2ccccc2C#N)CC1)n1cc(-c2ncnc3[nH]ccc23)cn1 (stereo not drawn) ? < 20 nM

For the next question, use this compound.
Item N#CCC(C1CCN(c2cc(Oc3ccccc3)ncn2)CC1)n1cc(-c2ncnc3[nH]ccc23)cn1 (stereo not drawn) has what recorded IC50? < 20 nM

---

# targetOfAssay: Jak2 (a.a. 828-1132) (Homo sapiens, UniProt O60674)
# Construct: Jak2 (a.a. 828-1132); His tag (N); made in house; host or cells: insect cells (baculovirus)
# Sequence (O60674 828-1132): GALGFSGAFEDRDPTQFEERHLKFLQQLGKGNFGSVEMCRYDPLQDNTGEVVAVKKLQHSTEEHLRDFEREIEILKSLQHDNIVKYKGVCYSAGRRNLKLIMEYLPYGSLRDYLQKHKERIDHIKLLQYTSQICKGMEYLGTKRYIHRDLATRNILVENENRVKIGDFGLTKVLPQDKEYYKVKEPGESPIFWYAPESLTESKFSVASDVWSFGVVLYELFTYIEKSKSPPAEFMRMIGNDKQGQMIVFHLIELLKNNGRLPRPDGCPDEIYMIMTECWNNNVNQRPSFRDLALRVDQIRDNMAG
# protocolDetails: In vitro JAK kinase assay (HTRF, phosphorylation of biotinylated peptide), JAK2
# Type: biochemical
# recordedConditions: 1 mM ATP; Examples 12-91; read-out: JAK2 IC50 (nM) @ 1 mM ATP
# Procedure: Compounds herein were tested for inhibitory activity of JAK targets according to the following in vitro assay described in Park et al., Analytical Biochemistry 1999, 269, 94-104. […] The phosphorylated peptide was detected by homogenous time resolved fluorescence (HTRF). […] Binding to the Europium labeled antibody took place for 40 minutes and HTRF signal was measured on a Fusion plate reader (Perkin Elmer, Boston, Mass.). […]
Where a name gives a salt, the structure may show the parent alone.
endpointName: IC50

Reference set, count: 2
Kindly state the measured IC50 obtained for N#CCC(CN1CCN(C(=O)c2cc(F)cc(C#N)c2)CC1)n1ccc(-c2ncnc3[nH]ccc23)c1 (stereo not drawn) [Example 86, trifluoroacetate salt] with Jak2 (a.a. 828-1132) (Homo sapiens, UniProt O60674). > 100 nM

Under Jak2 (a.a. 828-1132) (Homo sapiens, UniProt O60674): IC50 value of N#CCC(CN1CCN(C(=O)Nc2cccc(C(F)(F)F)c2F)CC1)n1cc(-c2ncnc3[nH]ccc23)cn1 (stereo not drawn) ? > 100 nM

Continuing:
Lab request: please report IC50 under test system Jak2 (a.a. 828-1132) (Homo sapiens, UniProt O60674) for C[C@@H]1CN(C(=O)c2ccc(C#N)cc2F)CCN1CC(CC#N)n1cc(-c2ncnc3[nH]ccc23)cn1 (single isomer, unassigned) [24, R-2] > 100 nM

Which IC50 is reported with Jak2 (a.a. 828-1132) (Homo sapiens, UniProt O60674) for this entry: N#CCC(CN1CCN(C(=O)c2ccc(O)cc2F)CC1)n1cc(-c2ncnc3[nH]ccc23)cn1 (stereo not drawn) [Example 31, trifluoroacetate salt] ? 10 to 50 nM

Any idea what IC50 came out for N#CCC(CN1CCN(C(=O)c2ccc(F)cc2F)CC1)n1ccc(-c2ncnc3[nH]ccc23)c1 (stereo not drawn) on Jak2 (a.a. 828-1132) (Homo sapiens, UniProt O60674)? < 10 nM

Request: IC50, test system Jak2 (a.a. 828-1132) (Homo sapiens, UniProt O60674), entry N#CCC(CN1CCN(C(=O)c2ccc(C#N)cc2F)CC1)n1ccc(-c2ncnc3[nH]ccc23)c1 (single isomer, unassigned) [Example 13, trifluoroacetate Salt] 50 to 100 nM
